Test system: BDF1 mice, P388 leukemia ip, median survival T/C
assay_explanation: NCI In Vivo Anticancer Drug Screen. Data for tumor model P388 Leukemia (intraperitoneal) in B6D2F1 (BDF1) mice
condition_label: endpoint: median survival time; dose: 200.0 mg/kg/injection; schedule: Q04DX003 (ip); vehicle: Klucel (hydroxypropylcellulose) (HPC)
Toxic doses and inconclusive results are not listed. Rule for the calls: active = survival T/C of 150% or more; inactive = T/C below 125% in these data.
A correct response names exactly one class from active, inactive

Ask | Which result was noted for this molecule in the test: CCOc1ccc(/C=N/NS(=O)(=O)c2ccc(C)cc2)cc1
Reply | inactive

Ask | // return assay outcome for BrC1CCCCCC(Br)C12OCCO2 (stereo not drawn)
Reply | inactive

Ask | Please let me know the test result on file for CN(C)c1ccc(C(/C=N\O)(c2ccc(N(C)C)cc2)c2ccc(N(C)C)cc2)cc1 .
Reply | inactive

Ask | Would you mind telling me which call this test gave Cc1cccc(-c2nc3cc(Cl)ccc3c(=O)o2)c1 ?
Reply | inactive

Ask | Called result for CNC(=O)NNc1ccccc1
Reply | inactive

Ask | Tell me the assay call for OCC1C(CO)C2(Cl)C(Cl)=C(Cl)C1(Cl)C2(Cl)Cl (stereo not drawn) please.
Reply | inactive

Ask | Which outcome did this test record for the molecule COc1ccc(/C=C(\CC(=O)O)C(=O)O)cc1OC ?
Reply | inactive

Ask | Test call for this molecule, please: CCOC(C)C(/C=N/NC(N)=S)=NNC(N)=S (stereo not drawn)
Reply | inactive

Ask | Which result was noted for this molecule in the test: CSc1nccc(=O)n1-c1cccc(C(F)(F)F)c1
Reply | inactive

Ask | Dear all, I need the recorded test outcome for CCCC(=O)Nc1ccn(C2OC(COC(=O)CCC)C(OC(=O)CCC)C2OC(=O)CCC)c(=O)n1 (stereo not drawn) , thank you.
Reply | inactive

Ask | Write down the call the test reported for this molecule. Item: CCCOP(=S)(N1CC1)N1CC1
Reply | active

Ask | Could you please tell me the result logged for CCCCCCCCC(O)CCCCC (stereo not drawn) in this assay?
Reply | inactive

Ask | Hi, do you know how CC1(C#N)c2ccccc2C=CN1C(=O)c1ccccc1 (stereo not drawn) came out in this test?
Reply | inactive

Ask | State the result this test recorded for C1=NOC2c3ccc4ccccc4c3CCC12 (stereo not drawn) .
Reply | inactive

Ask | Short answer needed: outcome of this test for Cc1c(Cl)c(Cl)c(C)c(Cl)c1Cl ?
Reply | inactive

Ask | Outcome logged for C1=CC=CN(c2ccccc2)C=C1 in this assay:
Reply | inactive

Ask | How did this test come out for CN(C)c1ccc(C=O)c(Oc2ccccc2)c1 ?
Reply | inactive

Ask | What did the test return for COC(=O)/C=C/c1cccnc1 ?
Reply | inactive

Ask | Hi, sorry to bother you, what did the test record for CCOC(=O)CNC(c1ccccc1)(c1ccccc1)c1ccccc1 ?
Reply | inactive

Ask | Could you kindly confirm the outcome this assay logged for CCC(C#N)(c1ccccc1)c1ccccc1 ?
Reply | inactive

Ask | Please share the test call associated with CCOC(=O)/C(C#N)=C\C=C\c1ccccc1 .
Reply | inactive

Ask | What classification did COc1ccc(Cl)cc1NC(=O)c1ccccc1C(=O)O end up with in this test?
Reply | inactive

Ask | # lookup: test call for CCCCCCCCCCCCCCCC(N)=O
Reply | inactive

Ask | Assay outcome for c1ccc2c(c1)NC1(CCCCC1)S2 : what was it?
Reply | inactive

Ask | Status in this test for OCCCNc1cccc2ccccc12 ?
Reply | inactive

Ask | Given CC(=O)OCCC/C(=C/c1ccc(/C=C(\CCCOC(C)=O)[N+](=O)[O-])cc1)[N+](=O)[O-] , state the outcome it received in this test.
Reply | inactive

Ask | Which result was noted for this molecule in the test: Cc1ccc(N(N)c2ccc(C)cc2)cc1
Reply | inactive

Ask | Returns: the outcome recorded for O=C(c1ccc([N+](=O)[O-])cc1)C(Br)C(Br)c1ccncc1 (stereo not drawn) in this assay.
Reply | inactive

Ask | Dear all, I need the recorded test outcome for CC(C)c1ccc(C(=O)C2CC2)cc1 , thank you.
Reply | inactive

Ask | State the result this test recorded for CC1=CC(OC2CCCCO2)C2CC1C2(C)C (stereo not drawn) .
Reply | inactive

Ask | Identify the outcome logged in this assay for the molecule shown: CCOC(=O)C(=O)Cc1cnc2ccccc2n1
Reply | inactive

Ask | Kindly provide the recorded test outcome for the following molecule: O=C1c2ccccc2CCC1(Br)C(Br)c1ccccc1 (stereo not drawn)
Reply | inactive

Ask | What did the test return for C[C@]12CC[C@H]3C(=CCc4cc(O)ccc43)[C@@H]1C/C(=N\O)C2=O ?
Reply | inactive

---

Tested on: BDF1 mice, P388 leukemia ip, median survival T/C
assay_explanation: NCI In Vivo Anticancer Drug Screen. Data for tumor model P388 Leukemia (intraperitoneal) in B6D2F1 (BDF1) mice
condition_label: endpoint: median survival time; dose: 200.0 mg/kg/injection; schedule: Q04DX003 (ip); vehicle: water
Inconclusive results and toxic doses are left out. Rule for the calls: active = survival T/C of 150% or more; inactive = T/C below 125% in these data.
Form entry, call: pick from active, inactive

Ask | Per the records of this test, what outcome belongs to NNc1c(C(N)=O)c2c(N)ncnc2n1C1OC(CO)C(O)C1O (stereo unspecified) ?
Reply | active

Ask | What classification did NC(=O)C(CO)NC(=O)OCc1ccccc1 (stereo unspecified) end up with in this test?
Reply | inactive

Ask | Test call, this compound: COC(=O)CSc1ncc2cnccn12
Reply | inactive

Ask | // param item: c1ccc(-c2cc[s+]s2)cc1 ; yields the recorded call
Reply | inactive

Ask | Any idea what this test logged for CCOC(=O)CSc1c([N+](=O)[O-])c(C)nn1C ?
Reply | inactive

Ask | So what was the verdict on CC(C)(N)CCC(C)(C)NCCC#N in this test?
Reply | inactive

---

System: BDF1 mice, P388 leukemia ip, median survival T/C
assay_explanation: NCI In Vivo Anticancer Drug Screen. Data for tumor model P388 Leukemia (intraperitoneal) in B6D2F1 (BDF1) mice
condition_label: endpoint: median survival time; dose: 50.0 mg/kg/injection; schedule: Q01DX009 (ip); vehicle: saline; higher = longer survival
Toxic doses and inconclusive results are not listed.
assay_metric: T/C

Ask | Which value of T/C has been reported for O=C1CCS2(CCC(=O)O2)O1 in the records?
Reply | 98 % of control

Ask | Please give the measured T/C for this molecule: O=S(=O)(O/C1=C/CCCCCC1)C(F)(F)C(F)(F)C(F)(F)C(F)(F)F
Reply | 107 % of control

Ask | Looking for the measured T/C of CCOC(=O)C1=C(Nc2ccc([N+](=O)[O-])cc2)CCCC1 , can you help?
Reply | 87 % of control

Ask | # T/C lookup, item CC(=O)OCC(=O)C1CCC=CC1OC(C)=O (stereo not drawn)
Reply | 104 % of control

Ask | So what's the measured T/C for this one? O=C(O)COCC(F)(F)C(F)(F)C(F)(F)COCC(=O)O
Reply | 90 % of control

Ask | What T/C value was documented for this molecule, NNc1cccc(C(F)(F)F)c1 ?
Reply | 117 % of control

Ask | Which T/C value is on record for COc1cc2ccncc2cc1OCc1ccccc1 ?
Reply | 92 % of control

Ask | Requested field: T/C. Item: CC(CN(C)C)CN1c2ccccc2Sc2ccccc21 (stereo not drawn)
Reply | 108 % of control

---

Would you kindly list T/C for each of these molecules?
System: BDF1 mice, P388 leukemia ip, median survival T/C
assay_explanation: NCI In Vivo Anticancer Drug Screen. Data for tumor model P388 Leukemia (intraperitoneal) in B6D2F1 (BDF1) mice
condition_label: endpoint: median survival time; dose: 6.25 mg/kg/injection; schedule: Q01DX009 (ip); vehicle: Klucel (hydroxypropylcellulose) (HPC); higher = longer survival
Procedure: The antitumor activity of compounds was measured in mice bearing transplantable tumors. Survival or tumor size were measured and the results are expressed as the measurement made in the treated group (T) divided by the measurement made in the vehicle treated control group (C). The tumor model used in this assay is P388 Leukemia (intraperitoneal) in B6D2F1 (BDF1) mice
Inconclusive results and toxic doses are left out.

Ask | Dear colleague, I am looking for the recorded T/C of the following molecule: CCCCCCCCC(=O)c1c(OC)oc(/C=N/O)cc1=O
Reply | 97 % of control

Ask | I'd like to know its T/C. The molecule in question is O=C(CC(=O)C(F)(F)C(F)(F)C(F)(F)F)c1csc2ccccc12
Reply | 91 % of control

Ask | Quick one: T/C for COc1ccc2c(Cc3ccccc3)cncc2c1O ?
Reply | 99 % of control

Ask | # get_value(readout='T/C', item= Clc1cc(CBr)c(Cl)c(Cl)c1CBr )
Reply | 109 % of control

Ask | # lookup: T/C of CCc1cc2c(cc1C(=O)CBr)C(C)(C)CCC2(C)C
Reply | 105 % of control

Ask | What T/C value was documented for this molecule, CC(C)CCCC(=O)CCCCCCC(=O)CCN(O)C(=O)C(N)CO (configuration not stated) ?
Reply | 98 % of control

Ask | Recorded T/C for COC(=O)Nc1cccc(-c2nc3ccc(NC(=O)OC)cc3c(=O)n2-c2ccccc2)c1 , please?
Reply | 108 % of control
